Experiment: Intrinsic clearance in human liver microsomes at 0.5 uM incubated for 45 mins in presence of NADPH by LC-MS/MS analysis
Assay type: ADME, Microsome
Conditions: 0.75 h
CLH listing for selected compounds.
Note: unit mL/min/g is implicit; provide only the numeric part.

The examples below pair each entry with its known result.
• O=C(CCSc1nc2cnccc2o1)N1CCCC1 = 0.6
• O=C(CCSc1nc2ccccc2o1)N1CCCC1 = 5.1
• O=C(CCSc1nc2cc(F)c(F)cc2o1)N1CCCC1 = 6.5
• O=C(CCSc1nc2ccncc2o1)N1CCCC1 = 0.9

Shift focus to the following entry.
Which CLH is listed for O=C(CCSc1nc2cc(Cl)ccc2s1)N1CCCC1 ?
15
